- measured_on: FGFR1 (Homo sapiens, UniProt P11362)
- Sequence (P11362 398-822 limits assumed): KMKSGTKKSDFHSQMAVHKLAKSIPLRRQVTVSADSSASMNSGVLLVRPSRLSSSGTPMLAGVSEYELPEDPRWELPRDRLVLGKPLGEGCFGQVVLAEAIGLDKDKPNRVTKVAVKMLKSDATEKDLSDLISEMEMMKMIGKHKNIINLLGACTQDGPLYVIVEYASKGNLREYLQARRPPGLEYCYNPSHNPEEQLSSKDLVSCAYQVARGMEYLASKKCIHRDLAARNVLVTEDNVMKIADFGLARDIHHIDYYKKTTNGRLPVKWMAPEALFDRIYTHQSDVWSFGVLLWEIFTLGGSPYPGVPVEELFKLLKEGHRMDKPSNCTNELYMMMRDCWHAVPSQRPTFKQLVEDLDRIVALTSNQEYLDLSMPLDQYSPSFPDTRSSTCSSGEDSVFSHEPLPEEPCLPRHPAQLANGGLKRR
- assay_name: SelectScreen kinase activity profiling, FGFR1
- Type: biochemical
- Parameters: concentration or dose not given beside the values
- run_conditions: first of two independent trials
measured_parameter: % Inhibition (%)

molecule	measured_parameter	reading
O=[As](O)(O)c1ccc(Cc2ccc([As](=O)(O)O)cc2)cc1 [compound 48300]	% Inhibition	8
C1=Cc2ccccc2C1.C=C(C)c1ccccc1.[N-]=[N+]=Nc1ccccc1 [compound 122351]	% Inhibition	−1
O=C1c2ccccc2NC(c2cc(Cl)cc(Cl)c2O)N1CCc1ccccn1 (centres unmarked) [compound 328087]	% Inhibition	3
O=C(c1no[n+]([O-])c1C(=O)c1csc2ccccc12)c1csc2ccccc12 [compound 18877]	% Inhibition	−3
CC(C)(C)c1cc(O)ccc1O [compound 4972]	% Inhibition	3
COc1ccc(CC2C(=O)NC(C)C(=O)N(C)C3C(=O)N(C)C(Cc4ccc(O)c(c4)Oc4ccc(cc4)C3O)C(=O)NC(C)C(=O)NC(C)C(=O)N2C)cc1 (centres unmarked) [compound 259968]	% Inhibition	5
COc1ccc(CC2C(=O)NC(C)C(=O)N(C)C3Cc4ccc(cc4)Oc4cc(ccc4O)CC(C(=O)NC(C)C(=O)NC(C)C(=O)N2C)N(C)C3=O)cc1 (centres unmarked) [compound 259969]	% Inhibition	3
S=C1SCN(C2CCCCCCCCCCC2)CN1C1CCCCCCCCCCC1 [compound 209910]	% Inhibition	2
CC1(C)CC(Nc2ccc(Nc3ccccc3)cc2)CC(C)(C)N1 [compound 632536]	% Inhibition	1
Nc1cc[c]([Hg])cc1.Nc1nc2c(ncn2C2OC(CO)C(O)C2O)c(=[SH+])[nH]1 (centres unmarked) [compound 321237]	% Inhibition	7
CC1=C(Br)C(=O)C(C)=C(Br)C1=O.Cc1c(O)c(Br)c(C)c(O)c1Br [compound 112200]	% Inhibition	9
CC(C)(O)/C=C/C(=O)C(C)(O)C1C(O)CC2(C)C3CC=C4C(C=C(O)C(=O)C4(C)C)C3(C)C(=O)CC12C (centres unmarked) [compound 521777]	% Inhibition	1
CC1CCN(CC[S-])CC1.O.O.[Cl][Pt+] [compound 292596]	% Inhibition	4
CC(C)(C)c1cc(C#N)cc(Br)c1OP(=O)(Oc1c(Br)cc(C#N)cc1C(C)(C)C)c1ccccc1 [compound 203328]	% Inhibition	4
CC(C)(C)c1c2c(c(C(C)(C)C)c3c1OCN(Cc1ccccc1)C3)OCN(Cc1ccccc1)C2 [compound 48458]	% Inhibition	5
CC1(C)C2CCC1(C)C(OC(=O)CSC#N)C2 (centres unmarked) [compound 3535]	% Inhibition	−1
CC(=N[N-]C(=S)SCc1ccccc1)c1ccccn1.[Cl][Cu+] [compound 295642]	% Inhibition	2

====

- System: angiogenesis genes in dermal microvascular endothelial cells
- assay_name: Real time RT-PCR of angiogenesis gene expression during endothelial tube formation
- Type: cell-based
- run_conditions: 1 μM SM, 24 hours; 1st listing (r53)
measured_parameter: Log2 fold-change of gene expression: ACTB

compound	measured_on	reading
COc1cc2cc(c1Cl)N(C)C(=O)CC(OC(=O)C(C)C)C1(C)OC1C(C)C1CC(O)(NC(=O)O1)C(OC)/C=C/C=C(\C)C2 (stereo not drawn)	angiogenesis genes in dermal microvascular endothelial cells	−0.8
O=C1C(=Cc2ccccc2)C(NC2CCCCC2)c2ccccc21 (stereo not drawn)	angiogenesis genes in dermal microvascular endothelial cells	−0.9
CC1CCN(CC[S-])CC1.O.O.[Cl][Pt+]	angiogenesis genes in dermal microvascular endothelial cells	0.0
COc1ccc(CC2C(=O)NC(C)C(=O)N(C)C3Cc4ccc(cc4)Oc4cc(ccc4O)CC(C(=O)NC(C)C(=O)NC(C)C(=O)N2C)N(C)C3=O)cc1 (stereo not drawn)	angiogenesis genes in dermal microvascular endothelial cells	−2.5
CCC(=O)OCN1C(=O)C=CC1=O	angiogenesis genes in dermal microvascular endothelial cells	0.1
COC(=O)C1CC(=O)C(C(=O)OC)CC1=O (stereo not drawn)	angiogenesis genes in dermal microvascular endothelial cells	−1.0
